- assayed_target: T1, human transferrin receptor (hTfR) (human, UniProt P02786 89-760)
- T1 construct: Recombinant hTfR; at pH 7.4 captured on the chip by an anti-His tag antibody, at pH 6.0 immobilized on an NTA chip, so it carries a His tag; also called human TfR; TfR1
- T1 sequence (P02786 89-760 limits assumed): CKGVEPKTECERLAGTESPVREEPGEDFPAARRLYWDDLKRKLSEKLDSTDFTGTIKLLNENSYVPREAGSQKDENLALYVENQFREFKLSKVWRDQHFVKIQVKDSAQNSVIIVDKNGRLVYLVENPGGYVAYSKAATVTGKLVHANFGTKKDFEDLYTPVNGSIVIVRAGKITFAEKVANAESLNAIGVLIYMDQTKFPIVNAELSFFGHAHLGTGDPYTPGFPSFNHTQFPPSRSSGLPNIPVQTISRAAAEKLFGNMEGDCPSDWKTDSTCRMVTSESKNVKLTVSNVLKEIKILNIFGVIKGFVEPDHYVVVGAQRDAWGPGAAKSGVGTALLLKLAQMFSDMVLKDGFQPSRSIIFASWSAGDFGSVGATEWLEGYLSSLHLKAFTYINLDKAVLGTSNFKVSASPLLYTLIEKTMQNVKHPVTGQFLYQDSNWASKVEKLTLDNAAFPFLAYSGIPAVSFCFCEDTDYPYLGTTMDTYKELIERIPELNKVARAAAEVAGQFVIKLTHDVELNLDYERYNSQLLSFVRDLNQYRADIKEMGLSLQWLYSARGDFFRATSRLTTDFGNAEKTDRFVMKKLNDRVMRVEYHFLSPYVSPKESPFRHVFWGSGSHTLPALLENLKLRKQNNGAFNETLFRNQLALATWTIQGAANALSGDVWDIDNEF
- run_description: SPR (Biacore T200), pH 6.0, hTfR on chip
pKd: −log10 of the molar value. Numbered stars: 1 amine (or outer) side, 2 acyl side, 3 side chain; on linkers, the order of the positions; unused ones are H or OH. Bridge positions count the residues as written; N and C are the ends. Square brackets hold non-standard residues; d marks the D form. Primed or numbered codes have the meaning given here. F4aao = 4-(carboxymethoxy)-L-phenylalanine, O=C([C@H](Cc1ccc(OCC(=O)[*:3])cc1)N[*:1])[*:2]; NMePhe(4-COOH) = CN[C@@H](Cc1ccc(C(=O)O)cc1)C(=O)O; Tyr(Me) = COc1ccc(C[C@H](N[*:1])C(=O)[*:2])cc1; NMePhe(3-Cl) = CN[C@@H](Cc1cccc(Cl)c1)C(=O)O; NMeW = CN[C@@H](Cc1c[nH]c2ccccc12)C(=O)O; NMeY = CN[C@@H](Cc1ccc(O)cc1)C(=O)O; PEG4c(3) = PEG4 linker acid; PEG4c″ = not defined here

binder	pKd
{CH2CO}-AV[NMePhe(3-Cl)]V[NMeW]NY[F4aao]IIKRF[NMeY]C-{PEG4c(3)-NH2} (thioether N-15) [894_0644]	9.12
{CH2CO}-AV[NMePhe(3-Cl)]V[NMeW]NR[Tyr(Me)]IIQRF[NMeY]C-{PEG4c(3)-NH2} (thioether N-15) [894_0642]	7.12
AVXVXNYXIIQRFXC (as printed: A-V-MeF3C-V-MeW-N-Y-F4OMe-I-I-Q-R-F-MeY-C; linker PEG4c-NH2; cyclic (ClAc-Ala1 thioether to Cys15)) [894_0637]	8.31
{CH2CO}-AV[NMePhe(3-Cl)]V[NMeW]NR[Tyr(Me)]IIKRF[NMeY]C-{PEG4c″-NH2} (thioether N-15; reading uncertain) [894_0641]	7.88
AVXVXNYXIIKRFXC (as printed: A-V-MeF3C-V-MeW-N-Y-F4OMe-I-I-K-R-F-MeY-C; linker PEG4c-NH2; cyclic (ClAc-Ala1 thioether to Cys15)) [894_0636]	9.09
{CH2CO}-AV[NMePhe(3-Cl)]V[NMeW]NY[F4aao]IIKRF[NMePhe(4-COOH)](PEG4c(3))C-{PEG4c(3)-NH2} (thioether N-15) [894_0647]	9.12
